- Test system: 782815-120-R-J1-PDC complex spheroid viability
- Measurement Protocol: Anticancer human tumor 782815-120-R-J1-PDC patient-derived colon adenocarcinoma cell line growth inhibition [RAS]
- Condition Details: second compound 0.01 µM; first compound 0.316 µM; stronger effect = lower value
Readout Label: viability, T/C

CC(C)NCC(C(=O)N1CCN(c2ncnc3c2C(C)CC3O)CC1)c1ccc(Cl)cc1 (stereo not given) + C=CC(=O)N1CCN(c2nc(OCC3CCCN3C)nc3c(F)c(-c4nc(N)cc(C)c4C(F)(F)F)c(Cl)cc23)C(C)C1 = 91.1%

Please look at the items below and tell me viability, T/C for each one, in order.
1. Nc1ccn(C2OC(CO)C(O)C2(F)F)c(=O)n1 (stereo not given) + C=CC(=O)N1CCN(c2nc(OCC3CCCN3C)nc3c(F)c(-c4nc(N)cc(C)c4C(F)(F)F)c(Cl)cc23)C(C)C1
2. C=CC(=O)Nc1cc(Nc2nccc(-c3cn(C)c4ccccc34)n2)c(OC)cc1N(C)CCN(C)C + C=CC(=O)N1CCN(c2nc(OCC3CCCN3C)nc3c(F)c(-c4nc(N)cc(C)c4C(F)(F)F)c(Cl)cc23)C(C)C1
3. CC(Nc1ccc2c(c1)OCCn1cc(N3C(=O)OCC3C(F)F)nc1-2)C(N)=O (stereo not given) + C=CC(=O)N1CCN(c2nc(OCC3CCCN3C)nc3c(F)c(-c4nc(N)cc(C)c4C(F)(F)F)c(Cl)cc23)C(C)C1
4. C[C@@H](NC(=O)c1ncnc(N)c1Cl)c1ncc(C(=O)Nc2cc(C(F)(F)F)c(Cl)cn2)s1 + C=CC(=O)N1CCN(c2nc(OCC3CCCN3C)nc3c(F)c(-c4nc(N)cc(C)c4C(F)(F)F)c(Cl)cc23)C(C)C1

Response:
["23.6%", "93.8%", "95.8%", "104%"]

* * *

- System: 782815-120-R-J1-PDC complex spheroid viability
- Measurement Protocol: Anticancer human tumor 782815-120-R-J1-PDC cell line growth inhibition [RAS];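 further: spheroids exposed to compounds for 7 days before reading; 100% = DMSO vehicle control viability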
- Condition Details: second compound 0.000949 µM; first compound 0.0316 µM; stronger effect = lower value
Task for the reader: assign each of the following compounds its reported viability, T/C.
Answers are plain numbers, in %.

Study these solved cases before continuing.
C[C@@H](NC(=O)c1ncnc(N)c1Cl)c1ncc(C(=O)Nc2cc(C(F)(F)F)c(Cl)cn2)s1 + CCn1c(-c2cc(N3CCN(C)CC3)cnc2C(C)OC)c2c3cc(ccc31)-c1csc(n1)CC(NC(=O)C1CC1C)C(=O)N1CCCC(N1)C(=O)OCC(C)(C)C2 = 82.2
NC1c2ccccc2OC12CCN(c1cnc3c(N4CCCc5ncccc54)n[nH]c3n1)CC2 (centres undefined) + CCn1c(-c2cccnc2C(C)OC)c2c3cc(ccc31)N1CCOC(CC(NC(=O)C(C(C)C)N(C)C(=O)C3(F)CCN(C(=O)C#CC(C)(C)N(C)C)CC3)C(=O)N3CCCC(N3)C(=O)OCC(C)(C)C2)C1 = 97.9
CC(C)NCC(C(=O)N1CCN(c2ncnc3c2C(C)CC3O)CC1)c1ccc(Cl)cc1 (centres undefined) + CCn1c(-c2cc(N3CCN(C)CC3)cnc2C(C)OC)c2c3cc(ccc31)-c1csc(n1)CC(NC(=O)C1CC1C)C(=O)N1CCCC(N1)C(=O)OCC(C)(C)C2 = 79.6

Request: Which value of viability, T/C has been reported for C=CC(=O)N1CCN(c2nc(OCC3CCCN3C)nc3c(F)c(-c4nc(N)cc(C)c4C(F)(F)F)c(Cl)cc23)C(C)C1 (centres undefined) + CCn1c(-c2cc(N3CCN(C)CC3)cnc2C(C)OC)c2c3cc(ccc31)-c1csc(n1)CC(NC(=O)C1CC1C)C(=O)N1CCCC(N1)C(=O)OCC(C)(C)C2 in the records?
Response: 70

* * *

- Tested on: 782815-120-R-J1-PDC complex spheroid viability
- Measurement Protocol: Anticancer human tumor 782815-120-R-J1-PDC cell line growth inhibition [RAS];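 further: spheroids exposed to compounds for 7 days before reading; 100% = DMSO vehicle control viability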
- Condition Details: second compound 0.1 µM; first compound 1 µM; stronger effect = lower value
Task for the reader: assign each of the following compounds its reported viability, T/C.
Answers are plain numbers, in %.

Study these solved cases before continuing.
CCC(CC)c1cc(NC2CCC(N)C2)n2nccc2n1 (stereo unspecified) + C#Cc1c(F)ccc2cc(O)cc(-c3ncc4c(N5CC6CCC(C5)N6)nc(OCC56CCCN5CC(F)C6)nc4c3F)c12 = 104
Nc1ccn(C2OC(CO)C(O)C2(F)F)c(=O)n1 (stereo unspecified) + C=CC(=O)N1CCN(c2nc(OCC3CCCN3C)nc3c(F)c(-c4nc(N)cc(C)c4C(F)(F)F)c(Cl)cc23)C(C)C1 = 21.5
O=C(c1ccc(F)c(F)c1Nc1ccc(I)cc1F)N1CC(O)([C@@H]2CCCCN2)C1 + C#Cc1c(F)ccc2cc(O)cc(-c3ncc4c(N5CC6CCC(C5)N6)nc(OCC56CCCN5CC(F)C6)nc4c3F)c12 = 4.18
C[C@@H](NC(=O)c1ncnc(N)c1Cl)c1ncc(C(=O)Nc2cc(C(F)(F)F)c(Cl)cn2)s1 + C#Cc1c(F)ccc2cc(O)cc(-c3ncc4c(N5CC6CCC(C5)N6)nc(OCC56CCCN5CC(F)C6)nc4c3F)c12 = 99.1

Please look at the items below and tell me viability, T/C for each one, in order.
1. Cc1nc(N2CCC3(CC2)COC(C)C3N)c(CO)nc1Sc1ccnc(N)c1Cl (stereo unspecified) + C=CC(=O)N1CCN(c2nc(OCC3CCCN3C)nc3c(F)c(-c4nc(N)cc(C)c4C(F)(F)F)c(Cl)cc23)C(C)C1
2. CC1(O)CCCC1n1c(=O)c(C(F)F)cc2cnc(NC3CCN(S(C)(=O)=O)CC3)nc21 (stereo unspecified) + C=CC(=O)N1CCN(c2nc(OCC3CCCN3C)nc3c(F)c(-c4nc(N)cc(C)c4C(F)(F)F)c(Cl)cc23)C(C)C1
3. C[C@@H](NC(=O)c1ncnc(N)c1Cl)c1ncc(C(=O)Nc2cc(C(F)(F)F)c(Cl)cn2)s1 + C=CC(=O)N1CCN(c2nc(OCC3CCCN3C)nc3c(F)c(-c4nc(N)cc(C)c4C(F)(F)F)c(Cl)cc23)C(C)C1
4. C=CC(=O)Nc1cc(Nc2nccc(-c3cn(C)c4ccccc34)n2)c(OC)cc1N(C)CCN(C)C + C=CC(=O)N1CCN(c2nc(OCC3CCCN3C)nc3c(F)c(-c4nc(N)cc(C)c4C(F)(F)F)c(Cl)cc23)C(C)C1
5. CCC(CC)c1cc(NC2CCC(N)C2)n2nccc2n1 (stereo unspecified) + C=CC(=O)N1CCN(c2nc(OCC3CCCN3C)nc3c(F)c(-c4nc(N)cc(C)c4C(F)(F)F)c(Cl)cc23)C(C)C1
6. CC(C)NCC(C(=O)N1CCN(c2ncnc3c2C(C)CC3O)CC1)c1ccc(Cl)cc1 (stereo unspecified) + C=CC(=O)N1CCN(c2nc(OCC3CCCN3C)nc3c(F)c(-c4nc(N)cc(C)c4C(F)(F)F)c(Cl)cc23)C(C)C1
7. CC(Nc1ccc2c(c1)OCCn1cc(N3C(=O)OCC3C(F)F)nc1-2)C(N)=O (stereo unspecified) + C=CC(=O)N1CCN(c2nc(OCC3CCCN3C)nc3c(F)c(-c4nc(N)cc(C)c4C(F)(F)F)c(Cl)cc23)C(C)C1
8. CCN1CCN(Cc2ccc(Nc3ncc(F)c(-c4cc(F)c5nc(C)n(C(C)C)c5c4)n3)nc2)CC1 + C#Cc1c(F)ccc2cc(O)cc(-c3ncc4c(N5CC6CCC(C5)N6)nc(OCC56CCCN5CC(F)C6)nc4c3F)c12

Response:
[105, 52.3, 99.8, 90.7, 98.4, 94.5, 86.1, 130]

Please look at the items below and tell me viability, T/C for each one, in order.
1. Nc1ccn(C2OC(CO)C(O)C2(F)F)c(=O)n1 (stereo unspecified) + C#Cc1c(F)ccc2cc(O)cc(-c3ncc4c(N5CC6CCC(C5)N6)nc(OCC56CCCN5CC(F)C6)nc4c3F)c12
2. NC1c2ccccc2OC12CCN(c1cnc3c(N4CCCc5ncccc54)n[nH]c3n1)CC2 (stereo unspecified) + C#Cc1c(F)ccc2cc(O)cc(-c3ncc4c(N5CC6CCC(C5)N6)nc(OCC56CCCN5CC(F)C6)nc4c3F)c12

Response:
[26.3, 106]

Please look at the items below and tell me viability, T/C for each one, in order.
1. Cc1nc(N2CCC3(CC2)COC(C)C3N)c(CO)nc1Sc1ccnc(N)c1Cl (stereo unspecified) + C#Cc1c(F)ccc2cc(O)cc(-c3ncc4c(N5CC6CCC(C5)N6)nc(OCC56CCCN5CC(F)C6)nc4c3F)c12
2. O=C(c1ccc(F)c(F)c1Nc1ccc(I)cc1F)N1CC(O)([C@@H]2CCCCN2)C1 + C=CC(=O)N1CCN(c2nc(OCC3CCCN3C)nc3c(F)c(-c4nc(N)cc(C)c4C(F)(F)F)c(Cl)cc23)C(C)C1

Response:
[99.7, 4.3]
